Please go through the items and note down their normalised response.
Test system: MCF-10A
Experiment: normalised response (% of control), CellTiter-Glo; higher = more viable cells (100 = DMSO, 0 = benzethonium chloride kill control)
Conditions: incubation time: 72 h
Answer with a number only, understood to be in %.

Challenge: Fill blank: measured normalised response of the compound O=C(c1ccc(C(=O)N2CCC(N3CCCC3)CC2)c(Nc2ccccc2)c1)N1CCC(N2CCCC2)CC1 [UNC1215] (30000 nM) is ____.
Response given: 95.4

Challenge: Fill blank: measured normalised response of the compound CC[C@]1(O)C[C@@H]2CN(CCc3c([nH]c4ccccc34)[C@@](C(=O)OC)(c3cc4c(cc3OC)N(C)[C@H]3[C@@](O)(C(=O)OC)[C@H](OC(C)=O)[C@]5(CC)C=CCN6CC[C@]43[C@@H]65)C2)C1 [Vinblastine] (1000 nM) is ____.
Response given: 71.6

Challenge: Fill blank: measured normalised response of the compound Clc1ccc(C(c2ccccc2Cl)C(Cl)Cl)cc1 (stereo not drawn) [Mitotane] (10000 nM) is ____.
Response given: 102

====

Please go through the items and note down their normalised viability.
Tested on: DU-4475
Assay: normalised viability (% of control), CellTiter-Blue; higher = more viable cells (about 100 = DMSO control)
Conditions: incubation time: 72 h
Answer with a number only, understood to be in %.

Challenge: Fill blank: measured normalised viability of the compound COc1cccc2c1C(=O)c1c(O)c3c(c(O)c1C2=O)C[C@@](O)(C(=O)CO)C[C@@H]3O[C@H]1C[C@H](N)[C@H](O)[C@H](C)O1 [Doxorubicin] (30 nM) is ____.
Response given: 55

Challenge: Fill blank: measured normalised viability of the compound OC[C@H]1O[C@@H](n2cnc3c2N=CNC[C@H]3O)C[C@@H]1O [Pentostatin] (300 nM) is ____.
Response given: 93.1

Challenge: Fill blank: measured normalised viability of the compound CN1CC[C@H](c2c(O)cc(O)c3c(=O)cc(-c4ccccc4Cl)oc23)[C@H](O)C1 [Alvocidib] (300 nM) is ____.
Response given: 1.07

Challenge: Fill blank: measured normalised viability of the compound Nc1nc(Cl)nc2c1ncn2[C@H]1C[C@H](O)[C@@H](CO)O1 [Cladribine] (30 nM) is ____.
Response given: 101

Challenge: Fill blank: measured normalised viability of the compound COc1cc(Nc2ncc3c(n2)-c2ccc(Cl)cc2C(c2c(F)cccc2OC)=NC3)ccc1C(=O)O [MLN8237] (300 nM) is ____.
Response given: 9.79

Challenge: Fill blank: measured normalised viability of the compound Cc1c2oc3c(C)ccc(C(=O)N[C@@H]4C(=O)N[C@H](C(C)C)C(=O)N5CCC[C@H]5C(=O)N(C)CC(=O)N(C)[C@@H](C(C)C)C(=O)O[C@@H]4C)c3nc-2c(C(=O)N[C@@H]2C(=O)N[C@H](C(C)C)C(=O)N3CCC[C@H]3C(=O)N(C)CC(=O)N(C)[C@@H](C(C)C)C(=O)O[C@@H]2C)c(N)c1=O [Dactinomycin] (30 nM) is ____.
Response given: 0

====

Please go through the items and note down their normalised viability.
Tested on: CAL-120
Assay: normalised viability (% of control), CellTiter-Blue; higher = more viable cells (100 = DMSO, 0 = benzethonium chloride kill control)
Settings: incubation time: 72 h
Answer with a number only, understood to be in %.

Challenge: Fill blank: measured normalised viability of the molecule CN1CC[C@H](c2c(O)cc(O)c3c(=O)cc(-c4ccccc4Cl)oc23)[C@H](O)C1 [Alvocidib] (1 nM) is ____.
Response given: 75

Challenge: Fill blank: measured normalised viability of the molecule S=c1[nH]cnc2nc[nH]c12 [Mercaptopurine] (1 nM) is ____.
Response given: 96.6

Challenge: Fill blank: measured normalised viability of the molecule COc1cccc2c1C(=O)c1c(O)c3c(c(O)c1C2=O)C[C@@](O)(C(=O)CO)C[C@@H]3O[C@H]1C[C@H](N)[C@H](O)[C@H](C)O1 [Doxorubicin] (0.1 nM) is ____.
Response given: 86.9

Challenge: Fill blank: measured normalised viability of the molecule Cc1c2oc3c(C)ccc(C(=O)N[C@@H]4C(=O)N[C@H](C(C)C)C(=O)N5CCC[C@H]5C(=O)N(C)CC(=O)N(C)[C@@H](C(C)C)C(=O)O[C@@H]4C)c3nc-2c(C(=O)N[C@@H]2C(=O)N[C@H](C(C)C)C(=O)N3CCC[C@H]3C(=O)N(C)CC(=O)N(C)[C@@H](C(C)C)C(=O)O[C@@H]2C)c(N)c1=O [Dactinomycin] (0.1 nM) is ____.
Response given: 95.6

Challenge: Fill blank: measured normalised viability of the molecule CO[C@H]1C[C@@H]2CC[C@@H](C)[C@@](O)(O2)C(=O)C(=O)N2CCCC[C@H]2C(=O)O[C@H]([C@H](C)C[C@@H]2CC[C@@H](OC(=O)C(C)(CO)CO)[C@H](OC)C2)CC(=O)[C@H](C)/C=C(\C)[C@@H](O)[C@@H](OC)C(=O)[C@H](C)C[C@H](C)/C=C/C=C/C=C/1C [Temsirolimus] (0.1 nM) is ____.
Response given: 86.7

Ref: the supplement of paper PMC4862054
